value-kind: melting point

Here is how some molecules turned out for melting point.
| molecule | assay-result |
| --- | --- |
| C=CCCc1ccc(NC(=O)OCc2ccccc2)c(O)n1 | 179 to 180 °C |
| CN1CCC(c2n[nH]c3ccc([N+](=O)[O-])cc23)CC1 | 237 to 239 °C |
| c1cnc2[nH]c(C3CCNC3)cc2c1 (stereo not given) | 130 to 133 °C |

Query: State the recorded melting point for this entry: CCNCC1CN(c2c(F)cc3c(=O)c(C(=O)O)cn(C4CC4)c3c2F)C1
Result: 237 to 242 °C

Query: Please give the result for CCCN(Cc1ccco1)S(=O)(=O)c1ccc(OC)c2oc(C(C)=O)cc12 too.
Result: 109 to 111 °C

Query: Please give the result for Cc1cc(=O)c2ccccc2s1 too.
Result: 70 °C

Query: Please give the result for O=C(CCCCC1CCSS1)N1CCN(c2ccc([N+](=O)[O-])cc2)CC1 (stereo not given) too.
Result: 97.6 to 98.5 °C

Query: Please give the result for O=CN(O)C(CS(=O)(=O)c1ccc(-c2ccc(C(F)(F)F)cc2)cc1)c1cccnc1 (stereo not given) too.
Result: 186 to 189 °C

Query: Please give the result for O=C(O)C(CC(=O)N1CCOCC1)Oc1ccccc1 (stereo not given) too.
Result: 150 to 151 °C

Query: Please give the result for CCOC(=N)c1sc2ccc(Cl)cc2c1O too.
Result: 236 °C

Query: Please give the result for COc1ccc(-c2nc(-c3ccccc3)sc2-c2ccc(OC)cc2)cc1 too.
Result: 117 to 118 °C
